The reported measurements were obtained from patent US11098040B2.

Assay: Pharmacokinetic (PK) studies via intravenous infusion, Sprague-Dawley rat
Assay type: in vivo
Details: male, plasma, 1 hour-IV infusion 4 mg/kg, 1.5 hr, one rat
Procedure: Test compound dosing solutions were administered via intravenous infusion to Sprague-Dawley male rat. Into 50 μL of test compound plasma samples were added 5 μL DMSO then 200 μL of 25 ng/mL internal standard (ITSD) (Verapamil) in MeOH/acetonitrile (1:1, v/v). […] The limit of quantification (LOQ) was 1 ng/mL. The lower limit of quantification was 1-10 ng. […] The PK profiles of compound 24 and compound 28 are shown below. […] The limit of quantification was 1 ng/mL.
endpoint: concentration at 1.5 h (ng/mL)
Use ng/mL as the unit, but write only the number.

Looking for the measured concentration at 1.5 h of COC(=O)[C@H]1Cc2c([nH]c3ccccc23)[C@H](c2ccc(S(=O)(=O)N[C@]34C[C@H]5C[C@H](C[C@H](C5)C3)C4)cc2)N1C(=O)CCl , can you help?
5.07

----------
Measured pIC50 by item
System: A549
Test: Cell viability assay, A549 cells
Type: cell-based
Conditions: Homo sapiens, A549, Cell Line A549; read-out: IC50
Entry type: numeric. Quantity: pIC50, the -log10 of concentration in molar units.

C#CCOc1ccc2[nH]c3c(c2c1)C[C@H](C)N(C(=O)CCl)[C@H]3c1ccc(NC23CC4CC(CC(C4)C2)C3)cc1 [Compound 207]; 4.88

Lab request: please report pIC50 under test system A549 for C#CC(=O)N1[C@@H](c2ccc(F)cc2)c2[nH]c3ccccc3c2C[C@@H]1C1CCCC1 [Compound 177]
5.49

Kindly state the measured pIC50 obtained for CC[C@H]1Cc2c([nH]c3ccccc23)[C@H](c2ccc(N3CCOCC3)cc2)N1C(=O)CCl [Compound 117] with A549.
5.33

What reported pIC50 corresponds to C#CC(=O)N1[C@@H](CCCC)Cc2c([nH]c3ccc(OC)cc23)[C@@H]1c1ccc(F)cc1 [Compound 155] on A549?
5.07

I'm curious: which pIC50 was measured for CC#CC(=O)N1[C@@H](CCCC)Cc2c([nH]c3ccccc23)[C@@H]1c1ccc(F)cc1 [Compound 180] tested on A549?
4.55

Tell me reported pIC50 for C#CC(=O)N1[C@@H](CCCC)Cc2c([nH]c3ccccc23)[C@@H]1C12CC(F)(C1)C2 [Compound 154] , tested with A549.
5.10

Request body: readout pIC50, system A549, query C#CC(=O)N1[C@@H](c2c(F)cccc2F)c2[nH]c3ccccc3c2C[C@@H]1C [Compound 201] . Return the value.
4.83

----------
Tested on: Panc 12
Assay: Cell proliferation assay, pancreatic cancer cell line Panc 12
Format: cell-based
Settings: Cell Line Panc 11
endpoint: IC50 (nM)
Give just the numeric value; nM need not be written.

Which IC50 value is on record for CCCC[C@H]1Cc2c([nH]c3ccccc23)[C@H](c2ccc(N3CCOCC3)cc2)N1C(=O)CCl ?
8.55

----------
Each entry below lists one item and its recorded IC50 value.
Test system: SJSA-1
Experiment: Cell proliferation (Alamar Blue) assay, SJSA-1 osteosarcoma, with/without ferrostatin
Type: cell-based, human
Details: Homo sapiens, SJSA-1, Cell Line SJSA-1; read-out: IC50
Lab book: enter the figure in nM, no units written.

Use these answered entries as a reference point.
C#CC(=O)N1[C@@H](CCCC)Cc2c([nH]c3ccccc23)[C@@H]1c1ccc(F)cc1; 32.4
C[C@H]1Cc2c([nH]c3ccccc23)C(c2ccc(N3CCOCC3)nc2)N1C(=O)CCl (stereo partly drawn); 201
C#CC(=O)N1[C@@H](c2ccc(F)cc2)c2[nH]c3ccccc3c2C[C@@H]1C#N; 908
C#CC(=O)N1[C@@H](c2ccc(S(=O)(=O)NC3CC3)cc2F)c2[nH]c3ccc(OC)cc3c2C[C@@H]1C; 119
C[C@H]1Cc2c([nH]c3ccc(F)cc23)[C@H](c2ccc(S(=O)(=O)NC3CC3)cc2F)N1C(=O)CCl (stereo in doubt); 13
C#CC(=O)N1[C@@H](c2ccc(Cl)cc2)c2[nH]c3ccccc3c2C[C@@H]1C; 133

Any idea what its IC50 is? The molecule is C[C@H]1Cc2c([nH]c3ccccc23)[C@H](c2ccc(N3CCS(=O)(=O)CC3)cc2)N1C(=O)CCl
81

// returns reported IC50 for input C[C@H]1Cc2c([nH]c3ccccc23)[C@H](c2ccc(N3CCOCC3)cc2F)N1C(=O)CCl
44.3

IC50 for C#CC(=O)N1[C@@H](CCCC)Cc2c([nH]c3ccc(OC)cc23)[C@@H]1c1ccc(F)cc1 ?
81

Need IC50, item Cc1cc(N2CCOCC2)ccc1[C@@H]1c2[nH]c3ccccc3c2C[C@H](C)N1C(=O)CCl
184

For C#CC(=O)N1[C@@H](COC)Cc2c([nH]c3ccccc23)[C@@H]1c1ccc(S(=O)(=O)NC2CC2)cc1F , what is its reported IC50?
25

So what's the measured IC50 for this one? COc1ccc2[nH]c3c(c2c1)C[C@H](C)N(C(=O)CCl)[C@H]3c1ccc(S(=O)(=O)NC2CC2)cc1F
34

Could you share which IC50 value was measured for C#CC(=O)N1[C@@H](c2ccc(S(=O)(=O)NC3CC3)cc2F)c2[nH]c3ccc(Cl)cc3c2C[C@@H]1C ?
37

Requested field: IC50. Item: C#CCOc1ccc2[nH]c3c(c2c1)C[C@H](C)N(C(=O)CCl)[C@H]3c1ccc(NC23CC4CC(CC(C4)C2)C3)cc1
86.8
